System: A498
Protocol Summary: NCI tumour cell line growth inhibition, 48 h
The source made the active and inactive calls. No stated cut-off is given here; in the data, active = GI50 up to about 1.1 µM and inactive = higher.
Can you answer with just one of these options? active, inactive

INPUT: Assay outcome for `CCn1c(C)nn2c(=O)c3ccccc3nc2c1=O` : what was it?
OUTPUT: inactive

INPUT: Assay outcome for CCOC(=O)NC/C=C/COC1CCCCO1 (stereo not drawn) : what was it?
OUTPUT: inactive

INPUT: Assay outcome for `O=c1oc2ccccc2[n+]([O-])c1-c1ccccc1` : what was it?
OUTPUT: inactive

INPUT: Assay outcome for Cc1ccc(S(=O)(=O)N/N=C2\CCCCCCCCCCC2CN(C)C)cc1 (stereo not drawn) : what was it?
OUTPUT: inactive

INPUT: Assay outcome for `O=C(c1ccco1)N1CCCN(C(=O)c2ccco2)C1=S` : what was it?
OUTPUT: inactive

INPUT: Assay outcome for `c1ccc(C/C(=N\Nc2nc3ccccc3[nH]2)c2ccccn2)cc1` : what was it?
OUTPUT: active

INPUT: Assay outcome for COc1cc2c(cc1O)-c1c(OC)c(O)cc3c1C(C2)N(C)CC3 (stereo not drawn) : what was it?
OUTPUT: inactive

INPUT: Assay outcome for CC1CC(C[N+](=O)[O-])CC2(C1)OCCO2 (stereo not drawn) : what was it?
OUTPUT: inactive

INPUT: Assay outcome for `O=C1c2scc(-c3ccc(Cl)cc3)c2-n2cccc21` : what was it?
OUTPUT: active

INPUT: Assay outcome for Brc1cccc(C2ON=C(c3ccccc3)N2C23CC4CC(CC(C4)C2)C3)c1 (stereo not drawn) : what was it?
OUTPUT: inactive

INPUT: Assay outcome for `O=C(/C=C\c1ccccc1)Oc1ccc(/C=C2\CCCCC2=O)cc1` : what was it?
OUTPUT: inactive

INPUT: Assay outcome for OC(C1CO1)C(O)C1CO1 (stereo not drawn) : what was it?
OUTPUT: inactive

INPUT: Assay outcome for `Cc1cn([C@@H]2O[C@H](CO)[C@@H](O)[C@@H]2O)c(=O)[nH]c1=O` : what was it?
OUTPUT: inactive

INPUT: Assay outcome for COC(=O)C1(C#N)C(C)(C)N=C(c2ccccc2)C12CCCCC2 (stereo not drawn) : what was it?
OUTPUT: inactive

INPUT: Assay outcome for NC(Cc1cc(Br)c(O)c(Br)c1)C(=O)O (stereo not drawn) : what was it?
OUTPUT: inactive

INPUT: Assay outcome for `CN(C)C=C1C(=O)N(C)C(=O)N(C)C1=O` : what was it?
OUTPUT: inactive

INPUT: Assay outcome for Cc1ccc(OCC2OC(n3cnc4c(Cl)nc(N)nc43)CC2Oc2ccc(C)cc2)cc1 (stereo not drawn) : what was it?
OUTPUT: inactive

INPUT: Assay outcome for `COc1ccccc1C(=O)c1c(NCc2ccccc2)c(=O)c1=O` : what was it?
OUTPUT: inactive

INPUT: Assay outcome for O=C(CCCCCCCCC(=O)NN1C(=O)/C(=C\c2ccc(O)c(O)c2)SC1c1ccc(Cl)cc1)NN1C(=O)/C(=C\c2ccc(O)c(O)c2)SC1c1ccc(Cl)cc1 (stereo not drawn) : what was it?
OUTPUT: inactive

INPUT: Assay outcome for `C[C@H]1S[C@@H](c2ccc(Cl)cc2Cl)N(NC(=O)c2ccncc2)C1=O` : what was it?
OUTPUT: inactive

INPUT: Assay outcome for `Cc1nc(SCC(=O)Nc2ccc(Cl)cc2)c2sc(=S)n(-c3ccccc3)c2n1` : what was it?
OUTPUT: inactive

INPUT: Assay outcome for COc1cccc(/C=C/C2=NN(c3cccc(S(=O)(=O)O)c3)C3(C2)SCC(=O)N3c2nc3ccccc3s2)c1 (stereo not drawn) : what was it?
OUTPUT: inactive

INPUT: Assay outcome for O=C=NCCCCCCN1C(=O)N2C(c3ccccc3)N(CCCCCCN=C=O)C(=O)N2C1c1ccccc1 (stereo not drawn) : what was it?
OUTPUT: inactive

INPUT: Assay outcome for `O=Cc1c2c(cc3c1CC1(C3)Cc3cc4c(c(C=O)c3C1)CCC4)CCC2` : what was it?
OUTPUT: inactive

INPUT: Assay outcome for `O=C(/C=C/c1ccc(Cl)c(Cl)c1)c1ccc2ccccc2c1` : what was it?
OUTPUT: inactive

INPUT: Assay outcome for COc1ccc2oc(C(=O)N3CC(CCl)c4ccc(N)cc43)cc2c1 (stereo not drawn) : what was it?
OUTPUT: active

INPUT: Assay outcome for Cc1cc2c(c(/C=N/c3ccc(N(C)C)cc3)c1)OC1(C=C2)Oc2ccccc2C(=O)N1C (stereo not drawn) : what was it?
OUTPUT: inactive

INPUT: Assay outcome for `O=C1CCc2c(sc3ncnc(Nc4cccc(Br)c4)c23)C1` : what was it?
OUTPUT: inactive

INPUT: Assay outcome for `Cc1cccc(/C=N/NC(=S)N2CCCCCC2)n1` : what was it?
OUTPUT: active

INPUT: Assay outcome for `Cc1cccc(/N=C/C=C(\Cl)c2ccc3ccccc3c2)c1` : what was it?
OUTPUT: inactive

INPUT: Assay outcome for CCN(CC)CC(O)CNc1ccc(NCC2CO2)c2c1C(=O)c1ccccc1C2=O (stereo not drawn) : what was it?
OUTPUT: inactive

INPUT: Assay outcome for `Cn1c2ccccc2c2cc(N3CCCC3)c3c(c21)C(=O)N(c1ccccc1)C3=O` : what was it?
OUTPUT: inactive

INPUT: Assay outcome for `CCc1n[nH]c(=O)n1N1C(=O)CCC1=O` : what was it?
OUTPUT: inactive

INPUT: Assay outcome for `O=[As](O)(O)c1ccc(/N=N/c2ccc(O)cc2)cc1` : what was it?
OUTPUT: inactive

INPUT: Assay outcome for CCCCCCCC(=O)OCC1OC(OC)C(NC(=O)N(CCCl)N=O)C(O)C1O (stereo not drawn) : what was it?
OUTPUT: inactive

INPUT: Assay outcome for COC(=O)/C(=N/NC(N)=O)C(C(=O)C(=O)Nc1ccc(C)cc1)c1nc2ccc(C(=O)c3ccccc3)cc2nc1O (stereo not drawn) : what was it?
OUTPUT: inactive

INPUT: Assay outcome for `Cc1ccc([C@H]2CC(=O)C[C@H](c3ccc(C)cc3)C23C(=O)c2ccccc2C3=O)cc1` : what was it?
OUTPUT: inactive

INPUT: Assay outcome for O=C(NN1C(=O)CSC1c1cccc(F)c1)c1ccncc1 (stereo not drawn) : what was it?
OUTPUT: inactive

INPUT: Assay outcome for `CN(C(=O)Cc1cc(Cl)c(Cl)cc1NC(=O)CN)[C@H]1CCCC[C@@H]1N1CCCC1` : what was it?
OUTPUT: inactive

INPUT: Assay outcome for `Cc1cc(=O)oc2cc(OS(C)(=O)=O)ccc12` : what was it?
OUTPUT: inactive

INPUT: Assay outcome for CN1CCC23c4c5ccc(Oc6nnnn6-c6ccccc6)c4OC2c2[nH]c4ccccc4c2CC3(O)C1C5 (stereo not drawn) : what was it?
OUTPUT: inactive

INPUT: Assay outcome for `CC(=O)NNc1nc(C)c(C(/C=C/c2ccccc2O)=N/N=C(N)N)s1` : what was it?
OUTPUT: inactive

INPUT: Assay outcome for `COc1ccc(-c2cc(=O)c3c(O)c(OC)c(O)cc3o2)cc1O` : what was it?
OUTPUT: inactive
